system-tested: ΔF508-CFTR (Homo sapiens, UniProt P13569, DEL508-508)
Construct: host or cells: CFBE41o-, doxycycline-inducible
Sequence (P13569 with tags, fused parts or gaps DEL508-508): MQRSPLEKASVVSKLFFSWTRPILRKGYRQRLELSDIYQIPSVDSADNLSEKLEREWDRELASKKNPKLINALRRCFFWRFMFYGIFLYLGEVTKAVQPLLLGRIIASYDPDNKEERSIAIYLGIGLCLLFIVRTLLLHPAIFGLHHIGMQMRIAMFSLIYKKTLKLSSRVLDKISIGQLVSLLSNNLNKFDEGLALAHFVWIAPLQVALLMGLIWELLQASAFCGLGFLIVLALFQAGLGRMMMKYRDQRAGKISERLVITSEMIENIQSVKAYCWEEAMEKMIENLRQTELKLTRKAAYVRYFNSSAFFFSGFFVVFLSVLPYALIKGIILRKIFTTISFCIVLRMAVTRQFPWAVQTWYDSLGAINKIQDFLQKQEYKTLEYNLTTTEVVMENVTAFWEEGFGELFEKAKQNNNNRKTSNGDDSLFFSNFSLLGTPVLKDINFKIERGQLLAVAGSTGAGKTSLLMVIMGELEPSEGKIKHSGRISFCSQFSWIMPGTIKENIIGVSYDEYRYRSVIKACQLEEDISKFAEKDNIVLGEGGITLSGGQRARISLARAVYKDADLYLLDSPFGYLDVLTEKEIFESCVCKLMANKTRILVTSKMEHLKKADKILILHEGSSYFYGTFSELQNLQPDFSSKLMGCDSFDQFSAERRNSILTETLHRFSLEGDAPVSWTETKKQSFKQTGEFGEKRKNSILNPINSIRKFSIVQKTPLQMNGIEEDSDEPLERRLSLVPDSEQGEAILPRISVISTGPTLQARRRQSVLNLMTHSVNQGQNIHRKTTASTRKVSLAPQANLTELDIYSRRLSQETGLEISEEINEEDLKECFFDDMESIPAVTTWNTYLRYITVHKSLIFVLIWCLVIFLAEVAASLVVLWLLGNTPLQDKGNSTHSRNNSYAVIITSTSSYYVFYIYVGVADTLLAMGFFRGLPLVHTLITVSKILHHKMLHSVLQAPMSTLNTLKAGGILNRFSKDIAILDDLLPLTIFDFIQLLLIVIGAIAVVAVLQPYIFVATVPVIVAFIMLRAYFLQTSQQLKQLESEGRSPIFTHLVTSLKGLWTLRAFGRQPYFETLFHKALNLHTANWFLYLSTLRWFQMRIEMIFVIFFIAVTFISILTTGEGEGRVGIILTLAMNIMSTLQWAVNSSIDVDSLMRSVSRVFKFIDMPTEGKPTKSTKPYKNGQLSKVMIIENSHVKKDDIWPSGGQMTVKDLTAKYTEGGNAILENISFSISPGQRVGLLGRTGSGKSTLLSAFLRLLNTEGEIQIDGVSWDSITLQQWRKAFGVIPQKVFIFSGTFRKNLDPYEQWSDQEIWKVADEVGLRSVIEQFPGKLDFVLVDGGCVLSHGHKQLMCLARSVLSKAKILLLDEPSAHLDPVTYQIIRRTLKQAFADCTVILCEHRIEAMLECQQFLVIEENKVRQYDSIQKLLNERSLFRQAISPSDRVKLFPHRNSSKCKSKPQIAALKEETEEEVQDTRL
assay-name: CFTR cell surface levels using HRP-tagged ΔF508-CFTR expressing CFBE cells, intrinsic corrector capacity
Format: cell-based
settings: HRP-tagged ΔF508-CFTR expressing CFBE cells; intrinsic corrector capacity (no co-corrector); 33° C., 20 hours
Here, each record is paired with measured % Activation data.
Please give a number only; it is taken to be in %.

Cc1ncn(C)c(=O)c1CCN1CCN(c2cc(C(=O)O)nc3c2c(C2CCC2)nn3-c2ccccc2)CC1 [compound 502] = 152

Inquiry: Please give the documented % Activation of CCN1CCN(c2cc(C(=O)O)nc3c2c(C(C)C)nn3-c2ccc(F)cc2)CC1 [compound 772]
Reply text: 53.82

Inquiry: Give me measured % Activation, please, for this molecule: CC(C)(C)OC(=O)NC[C@@H]1CCN(c2cc(C(=O)O)nc3c2c(C2CCC2)nn3-c2ccccc2)C1 [compound 671]
Reply text: 190.1

Inquiry: Fill in reported % Activation for this entry: O=C1CN(c2cc(C(=O)O)nc3c2c(C2CCC2)nn3-c2ccccc2)CCN1 [compound 504]
Reply text: 19.62

====

Each record here notes measured pEC50.
system-tested: ΔF508-CFTR (Homo sapiens, UniProt P13569, DEL508-508)
Construct: host or cells: CFBE41o-, doxycycline-inducible
assay-name: CFTR cell surface levels using HRP-tagged ΔF508-CFTR expressing CFBE cells, intrinsic corrector capacity
Type: cell-based
settings: HRP-tagged ΔF508-CFTR expressing CFBE cells; intrinsic corrector capacity (no co-corrector); 33° C., 20 hours; read-out: EC50
Scale explanation: pEC50 corresponds to minus log10 of a concentration expressed in moles per litre.

Use these answered entries as a reference point.
O=C(O)c1cc(N2CC(F)(F)C2)c2c(C3CCC3)nn(-c3ccccc3)c2n1 [compound 528] = 5.48
O=C(O)c1cc(N2CC(F)(F)C[C@@H]2CO)c2c(C3CCC3)nn(-c3ccccc3)c2n1 [compound 506] = 5.48
CC(C)N1CNC(=O)C12CCN(c1cc(C(=O)O)nc3c1c(C1CCC1)nn3-c1ccccc1)CC2 [compound 469] = 5.95
O=C(O)c1cc(N2CCC(N3CCOCC3)CC2)c2c(C3CCC3)nn(-c3ccc(OC(F)(F)F)cc3)c2n1 [compound 909] = 6.87
COc1ccc(-n2nc(C3CCC3)c3c(N4CCC(N5CCOCC5)CC4)cc(C(=O)O)nc32)cc1F [compound 912] = 6.14

Inquiry: Report pEC50, nothing else, for this molecule: CC(C)OC(=O)N1CC[C@@H]2CN(c3cc(C(=O)O)nc4c3c(C3CCC3)nn4-c3ccccc3)CC[C@@H]21 (racemic) [compound 610]
Reply text: 6.91

====

system-tested: ΔF508-CFTR (Homo sapiens, UniProt P13569, DEL508-508)
Construct: host or cells: CFBE41o-, doxycycline-inducible
assay-name: CFTR cell surface levels using HRP-tagged ΔF508-CFTR expressing CFBE cells, intrinsic corrector capacity
Type: cell-based
settings: HRP-tagged ΔF508-CFTR expressing CFBE cells; intrinsic corrector capacity (no co-corrector); 33° C., 20 hours; read-out: EC50
Sorting guide: entries reporting EC50 beneath 600 nM go in the 1.0 pile, the rest go in the 0.0 pile.

These solved cases illustrate the format of a correct answer.
CC(C)N1CCC(Oc2cc(C(=O)O)nc3c2c(C2CCC2)nn3-c2ccccc2)CC1 = 0.0
O=C(O)c1cc(N2CCC(CN3CC(OCC(F)F)C3)CC2)c2c(C3CCC3)nn(-c3ccccc3)c2n1 = 1.0
CC(C)c1nn(-c2ccc(F)cc2)c2nc(C(=O)O)cc(N3CCC(O)(CN(C)C(C)C)CC3)c12 = 0.0
COCC1CCN(c2cc(C(=O)O)nc3c2c(C(C)C)nn3CC(C)C)CC1 = 0.0
O=C(O)c1cc(N2CCC(N3CCOCC3)CC2)c2c(C3CCC3)nn(-c3ccc4c(c3)OC(F)(F)O4)c2n1 = 1.0
COCC1CCN(c2cc(C(=O)O)nc3c2c(C(C)C)nn3CC2CCC2)CC1 = 0.0

Proceed to the following item.
Inquiry: Lab log: compare recorded EC50 with 600 nM; is it strictly lower for CC(C)c1nn(-c2ccc(F)cc2)c2nc(C(=O)O)cc(N3CCC(C(C)N4CCCC4)CC3)c12 (centres unmarked) ?
Reply text: 1.0
